# method_description: Permeability in MDCK cells
# Format: ADME, cell-based, Canis lupus familiaris
# experimental_conditions: dog, read-out: permeability
measurement_label: Papp (×10⁻⁶ cm/s)
Give the value in ×10⁻⁶ cm/s but do not write ×10⁻⁶ cm/s after it.

Measured Papp of Cc1cc(C)c(CN2CCc3c(Br)cc(-c4c(C)nnn4C)c(Cl)c3C2=O)c(=O)[nH]1 : 9

From: ChEMBL document CHEMBL4732175
